- Tested on: HCT-116 colon
- assay.name: NCI-60 one-dose screen, 48 h (100 = growth as untreated, 0 = no growth, -100 = all killed)
- recorded.conditions: 10 µM unless noted
This is part of a sample that, as a whole, favours compounds with a hit. Of some 83,000 tested, about 20% had one in any assay.
just bin them by growth: low group (below 30%), middle group (30% to below 40%), high group (40% or more)

O=S(=O)(NCCCNc1cc(-c2cn(-c3ccccc3)nc2-c2cccc(O)c2)ccn1)c1cccc(F)c1 middle group
COc1cccc(-c2nc3sccn3c2-c2ccnc(NCCCNS(=O)(=O)c3ccccc3)n2)c1 middle group
Cc1ccc(Oc2nc3ccccc3cc2-c2nnc(Cn3c(COc4ccccc4)nc4ccccc43)o2)cc1 low group
O=C1CCCCC=C1C[N+](=O)[O-] high group
COc1ccc(/C=C/c2nc(N3CCOCC3)c3cc(F)c(F)cc3n2)cc1OC middle group
O=S(=O)(NCCCNc1nccc(-c2c(-c3ccccc3)nc3sccn23)n1)c1ccc(F)cc1 low group
NC(=O)NNC(=O)c1ccccc1 high group
COc1ccc(-c2nc(-c3nc4ccc(F)cc4[nH]3)cc3c2[nH]c2ccccc23)cc1 low group
CC(C)[C@H](CO)Nc1nc(Nc2ccc(C(=O)NCCNS(=O)(=O)c3cccc4c(N(C)C)cccc34)c(Cl)c2)c2ncn(C(C)C)c2n1 low group

Taken from PubChem BioAssay (NCI).
